Kindly state Inhibition % of the MMP-9 for each of the entries shown.
System: MMP-9
Assay: OVA-induced MMP-9 expression in lung tissue, asthma mice
Assay type: in vivo, BALB/c mice
Conditions: OVA + drug 5 mM spray, 30 mins/day, days 21 to 27; lung tissue; OVA + vehicle control 100%
Structures can show the parent of a compound that is named as a salt.
Write the value in % as a bare number.

Task: # lookup: Inhibition % of the MMP-9 of `Cn1c(=O)c2c(ncn2CCN2CCN(c3ccccc3Cl)CC2)n(C)c1=O.N=C(N)NCCCC(N)C(=O)O`
Result: 65

Task: # lookup: Inhibition % of the MMP-9 of Cn1c(=O)c2c(ncn2CCN2CCN(c3ccccc3Cl)CC2)n(C)c1=O [KMUP-1 HCl salt]
Result: 55

Task: # lookup: Inhibition % of the MMP-9 of `CC(=O)N[C@@H](CS)C(=O)O.Cn1c(=O)c2c(ncn2CCN2CCN(c3ccccc3Cl)CC2)n(C)c1=O`
Result: 68

Task: # lookup: Inhibition % of the MMP-9 of CC(C)(O)c1ccccc1CCC(SCC1(CC(=O)O)CC1)c1cccc(C=Cc2ccc3ccc(Cl)cc3n2)c1.Cn1c(=O)c2c(ncn2CCN2CCN(c3ccccc3Cl)CC2)n(C)c1=O (stereo not shown)
Result: 70
